Known MCV of a selection of compounds
Species: Rattus norvegicus
assayName: Open TG-GATES - Regimen: Daily Repeat
Format: toxicity, organism-based, Sprague-Dawley
Parameters: regimen Daily Repeat, gender Male, age 6 weeks
conditionParameters: in vivo, po, 300 mg/kg, […], tissue Blood, route gavage, dose level Middle, time 14 day
Report only the number, with the unit fL understood.

Completed entries (count: 2):
compound	measureUnit	observedMeasurement
CCOc1ccc(NC(=O)CC(C)O)cc1 (stereo not drawn) [BUCETIN]	fL	61
NC(N)=Nc1nc(CSCCC(N)=NS(N)(=O)=O)cs1 [FAMOTIDINE]	fL	60.9

Shifting focus to the compound that follows.
The measured MCV associated with CCOC(=O)CCC(=O)O[C@H]1[C@H](O[C@@H]2[C@@H](C)[C@H](O[C@H]3C[C@@](C)(OC)[C@@H](O)[C@H](C)O3)[C@@H](C)C(=O)O[C@H](CC)[C@@](C)(O)[C@H](O)[C@@H](C)C(=O)[C@H](C)C[C@@]2(C)O)O[C@H](C)C[C@@H]1N(C)C [ERYTHROMYCIN ETHYLSUCCINATE] reads 58.9

----------
Species on record: Rattus norvegicus
assayName: Open TG-GATES - Regimen: Single
Assay type: toxicity, organism-based, Sprague-Dawley
Set-up: regimen Single, gender Male, age 6 weeks
conditionParameters: in vivo, po, 0 mg/kg, 9 h, tissue Blood, route gavage, dose level Control
observedProperty: Ret (%)
Return type: number; implicit unit %.

Sample records with Ret:
compound	Ret (%)
CCCNC(=O)NS(=O)(=O)c1ccc(Cl)cc1 [CHLORPROPAMIDE]	9.1
COc1ccc2[nH]c([S+]([O-])Cc3ncc(C)c(OC)c3C)nc2c1 (stereo not drawn)	7.4

Documented Ret of NNC(=O)c1ccncc1 : 7.7

----------
Organism: Rattus norvegicus
assayName: Open TG-GATES - Regimen: Daily Repeat
Format: toxicity, organism-based, Sprague-Dawley
Design: regimen Daily Repeat, gender Male, age 6 weeks
conditionParameters: in vivo, po, 10 mg/kg, […], tissue Plasma, route gavage, dose level Low, time 7 day
observedProperty: RALB (g/dL)
Field format: number, assumed g/dL, no unit text.

CC1=C(/C=C/C(C)=C/C=C/C(C)=C/CO)C(C)(C)CCC1 3.2
CN(C)CCN(Cc1cccs1)c1ccccn1 3

Recorded RALB (molecule CN(C)CCCN1c2ccccc2CCc2ccccc21 ): 2.6

----------
Mono for assorted molecules
Species on record: Rattus norvegicus
assayName: Open TG-GATES - Regimen: Single
Format: toxicity, organism-based, Sprague-Dawley
Design: regimen Single, gender Male, age 6 weeks
conditionParameters: in vivo, po, 0 mg/kg, 9 h, tissue Blood, route gavage, dose level Control
Only the number, expressed in %, is required.

Given item CN(C)CCCN1c2ccccc2CCc2ccccc21 , the value recorded as its Mono is 2.4

----------
Species: Rattus norvegicus
assayName: Open TG-GATES - Regimen: Single
Format: toxicity, organism-based, Sprague-Dawley
Set-up: regimen Single, gender Male, age 6 weeks
conditionParameters: in vivo, po, 0 mg/kg, 6 h, tissue Blood, route gavage, dose level Control
This section presents compounds with their documented MCH values.
The reply should read as a number followed by its unit.

compound	observedProperty	observedMeasurement
NC(N)=Nc1nc(CSCCC(N)=NS(N)(=O)=O)cs1	MCH	22 pg

# MCH (compound: NNC(=O)c1ccncc1 ) is 21.8 pg

Value of MCH reported for the compound COc1ccc2[nH]c([S+]([O-])Cc3ncc(C)c(OC)c3C)nc2c1 (centres undefined) is 21.4 pg

Given item CCCNC(=O)NS(=O)(=O)c1ccc(Cl)cc1 [CHLORPROPAMIDE] , the value recorded as its MCH is 21 pg

The recorded MCH for CN(C)CCN(Cc1cccs1)c1ccccn1 is 21 pg

response.value for CN1C(=O)CN=C(c2ccccc2)c2cc(Cl)ccc21 (field: MCH) = 21.4 pg

Record COc1cc2c(c(OC)c1OC)-c1ccc(OC)c(=O)cc1[C@@H](NC(C)=O)CC2 , field MCH: 21.6 pg

Looking up COC1=CC(=O)C[C@@H](C)[C@]12Oc1c(Cl)c(OC)cc(OC)c1C2=O , I found its MCH recorded as 20.9 pg

Recorded result, CCOC(=O)CCC(=O)O[C@H]1[C@H](O[C@@H]2[C@@H](C)[C@H](O[C@H]3C[C@@](C)(OC)[C@@H](O)[C@H](C)O3)[C@@H](C)C(=O)O[C@H](CC)[C@@](C)(O)[C@H](O)[C@@H](C)C(=O)[C@H](C)C[C@@]2(C)O)O[C@H](C)C[C@@H]1N(C)C [ERYTHROMYCIN ETHYLSUCCINATE] , MCH: 21.3 pg

Just so you know, measured MCH for Cc1ccc(C)c(OCCCC(C)(C)C(=O)O)c1 came out at 21.4 pg

Lab book: MCH of CCOc1ccc(NC(=O)CC(C)O)cc1 (centres undefined) noted as 21.4 pg

MCH for CC1=C(/C=C/C(C)=C/C=C/C(C)=C/CO)C(C)(C)CCC1 is 21.6 pg

Lab note: CC/C(=C(\c1ccccc1)c1ccc(OCCN(C)C)cc1)c1ccccc1 gave MCH of 21.8 pg

The compound listed as CN(C)CCCN1c2ccccc2CCc2ccc(Cl)cc21 has a reported MCH of 21 pg

Source: ChEMBL document CHEMBL3885861
